experiment: melting temperature; fluorescence melt of hairpins on a sequencing array, two-state fit, raised by 9.35 °C to match UV melts; settings: sodium 0.088 M
Tm vs 50 °C: at or above is t, below is f.

>  <SEQUENCE_INPUT>
GATCTCTGTAGAGATC ((((((....))))))

>  <LABEL_CLASS>
t

$$$$
>  <SEQUENCE_INPUT>
GCTCTGCGAAAGCACAGC (((.(((....))).)))

>  <LABEL_CLASS>
f

$$$$
>  <SEQUENCE_INPUT>
GTCTCCGAAAGGAAGGAC ((((((....)))..)))

>  <LABEL_CLASS>
f

$$$$

input: Tm >= 50 °C for GATCCAATGGTGGATC ((((((....)))))) ?
output: f

input: Check if Tm >= 50 °C (inclusive). Item: GTTCGCGAAAGCGCTAAC ((((((....)))..)))
output: f

###

assay: melting temperature; fluorescence melt of hairpins on a sequencing array, two-state fit, raised by 9.35 °C to match UV melts; details: sodium 0.088 M
Binary call on Tm: True from 50 °C upward, False beneath that.

Some solved cases for reference:
>  <SEQUENCE_INPUT>
GTGCCAGGAAACTGGTAC ((.((((....)))).))

>  <LABEL_CLASS>
True

$$$$
>  <SEQUENCE_INPUT>
GTGAACGAAAGTTCACAC ((((((....)))..)))

>  <LABEL_CLASS>
True

$$$$
>  <SEQUENCE_INPUT>
GCTCACCGAAAGGTCAGC (((.(((....))).)))

>  <LABEL_CLASS>
False

$$$$
>  <SEQUENCE_INPUT>
GATCAAATATTGATC ((((((...))))))

>  <LABEL_CLASS>
False

$$$$
>  <SEQUENCE_INPUT>
GATTTCCGAAAGGAGATC (((.(((....))).)))

>  <LABEL_CLASS>
False

$$$$
>  <SEQUENCE_INPUT>
GGCTCACGAAAGTGGCC (((.(((....))))))

>  <LABEL_CLASS>
True

$$$$
>  <SEQUENCE_INPUT>
GAGATCGGAAACGACCTC (((.(((....))).)))

>  <LABEL_CLASS>
False

$$$$
>  <SEQUENCE_INPUT>
GCAGTCACGAAAGTGTGC (((..(((....))))))

>  <LABEL_CLASS>
False

$$$$
>  <SEQUENCE_INPUT>
GCCGAGCGAAAGCTACGC ((..(((....)))..))

>  <LABEL_CLASS>
False

$$$$
>  <SEQUENCE_INPUT>
GCGTTGCGAAAGCATGGC ((..(((....)))..))

>  <LABEL_CLASS>
False

$$$$

input: Quick check: does GATCGTTAAGACGATC ((((((....)))))) have Tm greater than or equal to 50 °C?
output: True

input: Is Tm at least 50 °C? Consider GATAGCGAAAGCTTCATC ((((((....)))..)))
output: False

###

test: melting temperature; fluorescence melt of hairpins on a sequencing array, two-state fit, raised by 9.35 °C to match UV melts; settings: sodium 0.088 M
READOUT_LABEL: Tm (°C)
Numbers only, in °C.

Take a look at these entries with their results.
>  <SEQUENCE_INPUT>
CGAACGGAAACGTTGTCG ((((((....)))..)))

>  <MEASURED>
36.3

$$$$
>  <SEQUENCE_INPUT>
GGCCGGACGAAAGTCGCC (((..(((....))))))

>  <MEASURED>
50

$$$$
>  <SEQUENCE_INPUT>
GACGGCGAAAGCCGGGTC ((((((....)))..)))

>  <MEASURED>
68.2

$$$$

Would you be so kind as to report Tm for each listed record?
1. GATCGGAGGTCCGATC ((((((....))))))
2. GATCAAAGAATTGATC ((((((....))))))
3. GATCCTTAGTAGGATC ((((((....))))))
4. GGTGACCGAAAGGTGACC (((.(((....))).)))
5. GTGTTCGAAAGAATTCAC ((((((....)))..)))

output:
57.6
40
50.3
54.4
28.8
